src = ChEMBL document CHEMBL1144659

- assay explanation: Displacement of [3H]CP-526427 from AMPA receptor in Sprague-Dawley rat fore brain by radioligand binding assay
IC50 strictly less than 9 µM = t. Otherwise f.

Here's what some known entries look like.
COc1cc(C2=NNC(=O)Cc3cc4c(cc32)OCO4)ccc1N    f
CC1C(=O)NN=C(c2ccc(N)cc2)c2cc3c(cc21)OCCO3 (stereo not drawn)    t
CCC1C(=O)NN=C(c2ccc(N)cc2)c2cc3c(cc21)OCO3 (stereo not drawn)    t
Nc1ccc(C2=NNC(=O)C(Cc3ccccc3)c3cc4c(cc32)OCO4)cc1 (stereo not drawn)    f
CC1C(=O)NN=C(c2ccc(N)c(Cl)c2)c2cc3c(cc21)OCO3 (stereo not drawn)    f
CNC(=O)N1N=C(c2ccc(N)cc2)c2cc3c(cc2CC1=O)OCCO3    t
CCC1C(=O)NN=C(c2ccc(N)c(C)c2)c2cc3c(cc21)OCO3 (stereo not drawn)    f
CNC(=O)N1N=C(c2ccc(N)cc2)c2cc3c(cc2CC1=O)OCO3    f

In the following, a different compound is considered.
Criterion: IC50 strictly below 9 µM. Is it met by `Cc1cc(C2=NNC(=O)Cc3cc4c(cc32)OCO4)cc(C)c1N` ? f

====

- assay explanation: Displacement of [3H]CP-526427 from AMPA receptor in Sprague-Dawley rat fore brain by radioligand binding assay
measure: IC50 (µM)
Kindly answer with a numeric value in µM, unit omitted.

Some compounds with recorded IC50:
Cc1cc(C2=NNC(=O)C(C)c3cc4c(cc32)OCCO4)ccc1N (centres undefined)    4.5
Cc1cc(C2=NNC(=O)C(C)c3cc4c(cc32)OCO4)ccc1N (centres undefined)    9.62
Nc1ccc(C2=NNC(=O)Cc3cc4c(cc32)OCO4)cc1    32
Nc1ccc(C2=NNC(=O)Cc3cc4c(cc32)OCCO4)cc1Cl    2.05
CC1C(=O)NN=C(c2ccc(N)cc2)c2cc3c(cc21)OCO3 (centres undefined)    12.9

What value of IC50 has been reported for the following compound? `Nc1ccc(C2=NNC(=O)Cc3cc4c(cc32)OCCO4)cc1` 9

What value of IC50 has been reported for the following compound? CNC(=O)N1N=C(c2ccc(N)cc2)c2cc3c(cc2C(C)C1=O)OCO3 (centres undefined) 4.01

What value of IC50 has been reported for the following compound? CC1C(=O)NN=C(c2ccc(N)c(Cl)c2)c2cc3c(cc21)OCCO3 (centres undefined) 21.6
